- Test summary: Microsomal stability
- Assay type: in vitro ADME
- Assay conditions: mouse, liver microsomes
Measured metric: remaining at 1 h (%)
Your answer should be a plain number; it is taken to be in %.

Prompt: What does the data say about its remaining at 1 h? Entry: `C[C@]12CC[C@H]3[C@@H](CCC4=CC(=O)CC[C@@]43C)[C@@H]1CC[C@@H]2O`
Response: 26.1

All figures here come from paper PMC4805781.
